Where these numbers come from: patent US10208067B2

// reported maximal fold induction per item
System: SMN protein in SMA patient fibroblast cells (GM03813)
RUN DESCRIPTION: SMN protein assay (HTRF) in cultured cells
Type: cell-based
CONDITION PARAMETERS: Homo sapiens, relative to vehicle control, SMA Type 1 patient fibroblasts, 48 hours, read-out: max. fold increase of SMN protein
Quick one: just the number, no unit, thanks!

Cc1nc2ccc(-c3cc(=O)n4cc(N5C[C@H](C)N[C@@H](C)C5)cc(C)c4n3)nn2n1 = 1.78
Cc1nc2ccc(-c3cc(=O)n4cc(N5C[C@@H]6C[C@H]7CNC[C@]76C5)ccc4n3)nn2n1 = 1.87
Cc1nc2ncc(-c3cc(=O)n4cc(N5CCN[C@H](C)C5)ccc4n3)cn2n1 = 1.87
Cc1nc2ncc(-c3cc(=O)n4cc(N5CC6(CN(C)C6)C5)ccc4n3)cn2n1 = 1.6

input: Which maximal fold induction is reported for this compound? `Cc1nc2ccc(-c3cc(=O)n4cc(N5CCNC(C)(C)C5)cc(C)c4n3)nn2n1`
output: 1.79

input: Lookup `Cc1nc2ccc(-c3cc(=O)n4cc(N5CC6(CN(C)C6)C5)ccc4n3)nn2n1`
output: 1.75

input: Lookup `Cc1nc2ncc(-c3cc(=O)n4cc(N5CCN(C6CNC6)CC5)ccc4n3)cn2n1`
output: 1.5

input: Lookup `Cc1nc2ccc(-c3cc(=O)n4cc(N5CCN[C@@H](C)C5)ccc4n3)nn2n1`
output: 1.72

input: Lookup Cc1nc2ncc(-c3cc(=O)n4cc(N5CC6CNC6C5)ccc4n3)cn2n1 (stereo not shown)
output: 1.9

----------
Test system: SMN protein in SMA patient fibroblast cells (GM03813)
RUN DESCRIPTION: SMN protein assay (HTRF) in cultured cells
Format: cell-based
CONDITION PARAMETERS: Homo sapiens, concentration producing 1.5 times SMN protein vs vehicle, SMA Type 1 patient fibroblasts, 48 hours, read-out: EC1.5x SMN protein
ATTRIBUTE MEASURED: EC (1.5-fold) (µM)
Express your answer in µM, writing the number without its unit.

Cc1nc2ccc(-c3cc(=O)n4cc(N5CC6(CN(C)C6)C5)ccc4n3)nn2n1 = 0.0314
Cc1nc2ccc(-c3cc(=O)n4cc(N5C[C@H](C)N[C@@H](C)C5)ccc4n3)nn2n1 = 0.0629
CCN1CCN(c2cc(C)c3nc(-c4ccc5nc(C)nn5n4)cc(=O)n3c2)CC1 = 0.0725
Cc1nc2ccc(-c3cc(=O)n4cc(N5C[C@@H](C)N[C@@H](C)C5)ccc4n3)nn2n1 = 0.228
Cc1nc2ccc(-c3cc(=O)n4cc(N5CC6(CCNC6)C5)cc(C)c4n3)nn2n1 = 1.32

input: Which EC (1.5-fold) is reported for this molecule? `Cc1nc2ccc(-c3cc(=O)n4cc(N5CCN[C@@H](C)C5)ccc4n3)nn2n1`
output: 0.0515

input: Lookup `Cc1nc2ncc(-c3cc(=O)n4cc(N5CCNC(C)(C)C5)ccc4n3)cn2n1`
output: 2.15

input: Lookup `CCN1CCN(c2ccc3nc(-c4ccc5nc(C)nn5n4)cc(=O)n3c2)CC1`
output: 0.0562

----------
System: SMN protein in SMA patient fibroblast cells (GM03813)
RUN DESCRIPTION: SMN protein assay (HTRF) in cultured cells
Type: cell-based
CONDITION PARAMETERS: Homo sapiens, concentration producing 1.5 times SMN protein vs vehicle, SMA Type 1 patient fibroblasts, 48 hours, read-out: EC1.5x SMN protein
Protocol: The SMN HTRF (homogeneous time resolved fluorescence) assay is used to quantify the level of SMN protein in SMA patient fibroblast cells treated with test compounds. Materials used and respective sources are listed below in Table 4. Cells are thawed and cultured in DMEM-10% FBS for 72 hours. Cells are trypsinized, counted and re-suspended to a concentration of 25,000 cells/mL in DMEM-10% FBS. […]
ATTRIBUTE MEASURED: EC (1.5-fold)

Example entries and their recorded answers appear below.
Cc1nc2ccc(-c3cc(=O)n4cc(N5CCNCC5)ccc4n3)nn2n1 [Example 19] = 0.0392 µM
Cc1nc2ncc(-c3cc(=O)n4cc(N5CC6(CCNCC6)C5)ccc4n3)cn2n1 [Example 5] = 0.106 µM
Cc1nc2ccc(-c3cc(=O)n4cc(N5CCN[C@H](C)C5)cc(C)c4n3)nn2n1 [Example 40] = 0.0148 µM
Cc1nc2ccc(-c3cc(=O)n4cc(N5CC6(CCNCC6)C5)cc(C)c4n3)nn2n1 [Example 35] = 0.0082 µM
Cc1nc2ncc(-c3cc(=O)n4cc(N5CC6(CNC6)C5)ccc4n3)cn2n1 [Example 7] = 0.247 µM

input: Return EC (1.5-fold) measured with SMN protein in SMA patient fibroblast cells (GM03813) given this compound: Cc1nc2ccc(-c3cc(=O)n4cc(N5CCNC(C)(C)C5)cc(C)c4n3)nn2n1 [Example 28]
output: 0.0353 µM

input: Lookup Cc1nc2ccc(-c3cc(=O)n4cc(N5CCCN(C)CC5)cc(C)c4n3)nn2n1 [Example 25]
output: 0.226 µM

input: Lookup Cc1nc2ncc(-c3cc(=O)n4cc(N5CCN(C6COC6)CC5)ccc4n3)cn2n1 [Example 14]
output: > 31.6 µM
